The measurements presented in this section are drawn from ChEMBL document CHEMBL1961873.

Listing: inhibition of selected compounds
TARGET OR TEST SYSTEM: Calcium/calmodulin-dependent protein kinase type IV (Homo sapiens) (UniProt Q16566);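 further: each value is a mean inhibition of CAMK4, part of the GSK PKIS kinase screening panel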
Sequence (Q16566 whole entry): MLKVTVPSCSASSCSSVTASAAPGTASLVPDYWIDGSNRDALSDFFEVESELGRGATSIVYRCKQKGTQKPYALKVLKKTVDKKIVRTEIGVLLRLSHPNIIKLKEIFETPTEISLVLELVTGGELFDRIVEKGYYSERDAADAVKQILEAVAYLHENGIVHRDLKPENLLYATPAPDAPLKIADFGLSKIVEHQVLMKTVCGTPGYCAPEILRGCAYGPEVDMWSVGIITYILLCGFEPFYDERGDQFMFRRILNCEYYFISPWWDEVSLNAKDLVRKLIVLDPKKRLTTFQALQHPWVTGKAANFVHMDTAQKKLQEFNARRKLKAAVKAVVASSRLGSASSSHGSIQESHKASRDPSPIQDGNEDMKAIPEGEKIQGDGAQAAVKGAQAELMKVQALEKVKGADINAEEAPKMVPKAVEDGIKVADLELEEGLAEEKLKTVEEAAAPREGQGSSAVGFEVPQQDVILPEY
CONDITION: at 0.1 µM
Report the figure in % without appending any unit label.

smiles_repr=Cc1nc(-c2ccccc2)n2nc(NCCCN3CCOCC3)ncc12 reported_measurement=0.88
smiles_repr=COc1cccc(-n2ncc3c(N/N=C/c4ccc(C)cc4)ncnc32)c1 reported_measurement=1.46
smiles_repr=O=S(=O)(CCOCc1ccc(-c2ccc3ncnc(Nc4ccc(OCc5cccc(F)c5)c(Cl)c4)c3c2)o1)c1ccccc1 reported_measurement=-1.19

[Q] Field: inhibition (Calcium/calmodulin-dependent protein kinase type IV (Homo sapiens) (UniProt Q16566)). Entry: "CN(c1ccc(NC(=O)Nc2ccc(OC(F)(F)F)cc2)cc1)c1ccnc(Nc2cccc(S(N)(=O)=O)c2)n1"
[A] -0.96

[Q] Field: inhibition (Calcium/calmodulin-dependent protein kinase type IV (Homo sapiens) (UniProt Q16566)). Entry: "CCS(=O)(=O)c1ccc(OC)c(Nc2ncc(-c3cccc(OC)c3)o2)c1"
[A] -0.13

[Q] Field: inhibition (Calcium/calmodulin-dependent protein kinase type IV (Homo sapiens) (UniProt Q16566)). Entry: "CN(C)CCCn1c(-c2nonc2N)nc2cnccc21"
[A] -0.84

[Q] Field: inhibition (Calcium/calmodulin-dependent protein kinase type IV (Homo sapiens) (UniProt Q16566)). Entry: "Cc1cc(O)cc(C)c1/C=C/c1cncc(C(=O)N(C)C)c1"
[A] 2.13

[Q] Field: inhibition (Calcium/calmodulin-dependent protein kinase type IV (Homo sapiens) (UniProt Q16566)). Entry: "CN(C)C(=O)O[C@@H]1CN[C@@H](C#Cc2cc3ncnc(Nc4ccc(OCc5cccc(F)c5)c(Cl)c4)c3s2)C1"
[A] 0.93

[Q] Field: inhibition (Calcium/calmodulin-dependent protein kinase type IV (Homo sapiens) (UniProt Q16566)). Entry: "Cc1cc(Cl)cc2c1NC(=O)C2=NNc1ccc(S(N)(=O)=O)cc1"
[A] -0.56

[Q] Field: inhibition (Calcium/calmodulin-dependent protein kinase type IV (Homo sapiens) (UniProt Q16566)). Entry: "NS(=O)(=O)c1ccc(NC=C2C(=O)Nc3ccc4ncsc4c32)cc1"
[A] 0.83

[Q] Field: inhibition (Calcium/calmodulin-dependent protein kinase type IV (Homo sapiens) (UniProt Q16566)). Entry: "CCS(=O)(=O)c1ccc(OC)c(Nc2nccc(N(C)c3ccc4c(C)n[nH]c4c3)n2)c1"
[A] -1.76

[Q] Field: inhibition (Calcium/calmodulin-dependent protein kinase type IV (Homo sapiens) (UniProt Q16566)). Entry: "NC(=O)c1sc(-n2cnc3ccccc32)cc1OCc1ccccc1Br"
[A] 0.49

[Q] Field: inhibition (Calcium/calmodulin-dependent protein kinase type IV (Homo sapiens) (UniProt Q16566)). Entry: "C[C@@H](Oc1cc(-n2cnc3ccc(OCC4CCN(C)CC4)cc32)sc1C(N)=O)c1ccccc1C(F)(F)F"
[A] -0.36

###

TARGET OR TEST SYSTEM: Vascular endothelial growth factor receptor 1 (Homo sapiens) (UniProt P17948);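 further: values are mean percent inhibition of FLT1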
Sequence (P17948 whole entry): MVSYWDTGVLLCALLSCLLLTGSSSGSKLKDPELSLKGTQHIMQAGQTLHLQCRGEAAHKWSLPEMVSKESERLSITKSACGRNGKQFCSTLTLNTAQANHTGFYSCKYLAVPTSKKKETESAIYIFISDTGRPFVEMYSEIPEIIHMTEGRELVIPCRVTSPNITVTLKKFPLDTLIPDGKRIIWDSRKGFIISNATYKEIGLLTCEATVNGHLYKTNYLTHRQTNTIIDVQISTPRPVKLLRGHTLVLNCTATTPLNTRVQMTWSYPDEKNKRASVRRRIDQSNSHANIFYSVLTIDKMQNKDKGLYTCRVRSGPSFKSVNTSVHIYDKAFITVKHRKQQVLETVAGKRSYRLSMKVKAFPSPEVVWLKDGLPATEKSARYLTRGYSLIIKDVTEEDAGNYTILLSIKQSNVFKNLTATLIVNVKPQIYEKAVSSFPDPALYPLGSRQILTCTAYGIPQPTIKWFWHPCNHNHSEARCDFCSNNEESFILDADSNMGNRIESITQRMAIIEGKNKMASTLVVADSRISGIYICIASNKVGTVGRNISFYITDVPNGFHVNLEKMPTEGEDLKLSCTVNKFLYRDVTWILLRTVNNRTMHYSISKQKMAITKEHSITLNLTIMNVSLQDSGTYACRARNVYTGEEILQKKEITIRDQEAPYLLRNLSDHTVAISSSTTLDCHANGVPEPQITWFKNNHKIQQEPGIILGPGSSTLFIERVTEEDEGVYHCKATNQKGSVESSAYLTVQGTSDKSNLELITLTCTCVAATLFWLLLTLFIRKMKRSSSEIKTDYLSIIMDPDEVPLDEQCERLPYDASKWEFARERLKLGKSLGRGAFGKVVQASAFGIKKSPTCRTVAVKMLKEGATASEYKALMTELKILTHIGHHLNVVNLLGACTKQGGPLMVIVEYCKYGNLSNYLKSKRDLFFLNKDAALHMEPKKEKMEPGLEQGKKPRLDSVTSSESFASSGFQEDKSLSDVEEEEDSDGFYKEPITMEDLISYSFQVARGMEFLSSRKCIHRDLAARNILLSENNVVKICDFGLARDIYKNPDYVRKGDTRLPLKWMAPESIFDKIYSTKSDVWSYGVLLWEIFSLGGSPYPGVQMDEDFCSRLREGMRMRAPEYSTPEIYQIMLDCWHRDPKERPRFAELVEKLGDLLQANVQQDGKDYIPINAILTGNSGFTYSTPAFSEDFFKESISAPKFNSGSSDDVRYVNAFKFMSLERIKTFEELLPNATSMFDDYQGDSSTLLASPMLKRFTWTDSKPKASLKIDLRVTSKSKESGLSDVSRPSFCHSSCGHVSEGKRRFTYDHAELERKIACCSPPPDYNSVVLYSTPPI
CONDITION: at 0.1 µM
RESULT TYPE: inhibition (%)
Report the figure in % without appending any unit label.

Below are worked cases with known answers.
compound=[O-][S+]1CCN(Cc2ccc(-c3ccc4ncnc(Nc5ccc(OCc6ccccc6)c(Cl)c5)c4c3)o2)CC1 result_type=inhibition value_unit=% reported_measurement=-0.09
compound=N#Cc1c(NC(=O)c2ccccc2F)sc2c1CCCC2 result_type=inhibition value_unit=% reported_measurement=-1.64
compound=COC(=O)c1cncc(/C=C/c2c(C)cc(O)cc2C)c1 result_type=inhibition value_unit=% reported_measurement=0.94
compound=Cc1cc(O)cc(C)c1/C=C/c1cncc(C(=O)N(C)C)c1 result_type=inhibition value_unit=% reported_measurement=2.21
compound=Cc1ccc(O)cc1Nc1ccnc2ccc(S(C)(=O)=O)cc12 result_type=inhibition value_unit=% reported_measurement=22.2
compound="CCCN1CCCC(c2ccc(Nc3nc(Nc4cc(F)ccc4C(N)=O)c4cc[nH]c4n3)c(OC)c2)C1 (centres undefined)" result_type=inhibition value_unit=% reported_measurement=2.54
compound=CCS(=O)(=O)c1ccc(OC)c(Nc2nccc(N(C)c3ccc4c(C)n[nH]c4c3)n2)c1 result_type=inhibition value_unit=% reported_measurement=60.8
compound=N#Cc1cccc(Nc2nccc(-c3cnn4ncccc34)n2)c1 result_type=inhibition value_unit=% reported_measurement=8.37
compound=COc1cc2ncnc(Nc3ccc(C)c(O)c3)c2cc1OC result_type=inhibition value_unit=% reported_measurement=74.6
compound=COc1cccc(-n2ncc3c(N/N=C/c4ccc(C)cc4)ncnc32)c1 result_type=inhibition value_unit=% reported_measurement=-0.93

[Q] Quick one: inhibition of "Cc1ccc2c(c1)/C(=N/Nc1ccc(S(N)(=O)=O)cc1)C(=O)N2" ?
[A] 0.83

[Q] Quick one: inhibition of "COc1cccc(-n2nc(C)c3c(N/N=C(\C)c4ccncc4)ncnc32)c1" ?
[A] -0.52

[Q] Quick one: inhibition of "COc1ccc(-c2nn3ncccc3c2-c2ccnc(Nc3cccc(C(F)(F)F)c3)n2)cc1" ?
[A] 4.29

[Q] Quick one: inhibition of "COC(=O)Nc1nc2cc(Oc3ccc(NC(=O)Nc4cccc(Br)c4)cc3)ccc2[nH]1" ?
[A] 33

###

Listing: inhibition of selected molecules
System: Proto-oncogene tyrosine-protein kinase receptor Ret (Homo sapiens), P07949 [V804L]
Sequence (P07949 whole entry V804L): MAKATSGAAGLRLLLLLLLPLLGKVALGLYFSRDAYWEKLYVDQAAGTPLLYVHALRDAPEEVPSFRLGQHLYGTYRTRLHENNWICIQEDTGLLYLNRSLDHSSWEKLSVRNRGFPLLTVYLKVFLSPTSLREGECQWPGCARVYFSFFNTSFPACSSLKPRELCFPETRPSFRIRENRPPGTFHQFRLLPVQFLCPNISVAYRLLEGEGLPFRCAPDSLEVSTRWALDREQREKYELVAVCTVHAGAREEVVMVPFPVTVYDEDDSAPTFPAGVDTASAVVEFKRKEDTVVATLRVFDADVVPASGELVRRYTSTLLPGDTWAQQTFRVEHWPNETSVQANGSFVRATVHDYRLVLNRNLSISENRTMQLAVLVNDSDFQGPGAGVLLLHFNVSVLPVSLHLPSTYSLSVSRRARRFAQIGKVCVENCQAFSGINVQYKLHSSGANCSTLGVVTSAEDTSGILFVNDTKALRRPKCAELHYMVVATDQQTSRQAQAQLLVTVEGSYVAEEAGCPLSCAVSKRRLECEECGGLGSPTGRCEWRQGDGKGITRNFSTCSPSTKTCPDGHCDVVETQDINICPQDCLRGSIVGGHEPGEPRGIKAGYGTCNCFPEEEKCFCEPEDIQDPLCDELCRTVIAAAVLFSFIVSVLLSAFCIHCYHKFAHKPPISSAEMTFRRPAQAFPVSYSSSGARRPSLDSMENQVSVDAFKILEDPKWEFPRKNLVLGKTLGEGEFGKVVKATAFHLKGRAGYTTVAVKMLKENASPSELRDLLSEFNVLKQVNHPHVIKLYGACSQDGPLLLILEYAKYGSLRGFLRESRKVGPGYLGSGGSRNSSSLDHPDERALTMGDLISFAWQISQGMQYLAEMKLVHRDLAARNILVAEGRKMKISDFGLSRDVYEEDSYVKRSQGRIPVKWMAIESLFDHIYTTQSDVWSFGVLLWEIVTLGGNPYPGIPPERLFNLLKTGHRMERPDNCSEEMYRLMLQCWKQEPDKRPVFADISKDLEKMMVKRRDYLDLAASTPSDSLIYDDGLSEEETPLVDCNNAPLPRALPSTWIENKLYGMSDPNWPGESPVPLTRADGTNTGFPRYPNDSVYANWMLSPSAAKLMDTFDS
CONDITION: at 1 µM
Report the figure in % without appending any unit label.

smiles_repr=COc1cccc(-n2ncc3c(N/N=C/c4ccc(C)cc4)ncnc32)c1 reported_measurement=10.2

[Q] Quick one: inhibition of "COC(=O)c1cncc(/C=C/c2c(C)cc(O)cc2C)c1" ?
[A] 7.8

[Q] Quick one: inhibition of "Nc1nccc(C#Cc2cncnc2Nc2ccc(OCc3cccc(F)c3)c(Cl)c2)n1" ?
[A] 15

[Q] Quick one: inhibition of "COC(=O)Nc1nc2cc(Oc3ccc(NC(=O)Nc4cccc(Br)c4)cc3)ccc2[nH]1" ?
[A] 66.5

[Q] Quick one: inhibition of "c1ccc(Cc2nc3ccc(Nc4ncnc5ccccc45)cc3[nH]2)cc1" ?
[A] 9.82

[Q] Quick one: inhibition of "NS(=O)(=O)c1ccc(Nc2cc(-c3cccc(O)c3)n[nH]2)cc1" ?
[A] 21.3

###

System: Proto-oncogene tyrosine-protein kinase receptor Ret (Homo sapiens), P07949 [Y791F]
CONDITION: at 1 µM
RESULT TYPE: inhibition (%)
Report the figure in % without appending any unit label.

Below are worked cases with known answers.
smiles_repr=CS(=O)(=O)CCNCc1nc(-c2ccc3ncnc(Nc4ccc(OCc5cccc(C(F)(F)F)c5)cc4)c3c2)cs1 result_type=inhibition value_unit=% reported_measurement=5.88
smiles_repr=O=C(Nc1ccc(Oc2ccc3[nH]c(NC(=O)c4ccco4)nc3c2)cc1)Nc1cc(C(F)(F)F)ccc1F result_type=inhibition value_unit=% reported_measurement=82.3
smiles_repr=C[C@@H](Oc1cc(-n2cnc3ccc(OCC4CCN(C)CC4)cc32)sc1C(N)=O)c1ccccc1C(F)(F)F result_type=inhibition value_unit=% reported_measurement=18.4
smiles_repr=N#Cc1c(NC(=O)c2ccccc2F)sc2c1CCCC2 result_type=inhibition value_unit=% reported_measurement=1.78
smiles_repr=NS(=O)(=O)c1ccc(Nc2cc(-c3cccc(O)c3)n[nH]2)cc1 result_type=inhibition value_unit=% reported_measurement=26.2

[Q] Field: inhibition (Proto-oncogene tyrosine-protein kinase receptor Ret (Homo sapiens), P07949 [Y791F]). Entry: "Cc1ccc2c(c1)/C(=N/Nc1ccc(S(N)(=O)=O)cc1)C(=O)N2"
[A] 18.2

[Q] Field: inhibition (Proto-oncogene tyrosine-protein kinase receptor Ret (Homo sapiens), P07949 [Y791F]). Entry: "Cc1ccc2c(-c3ccnc(Nc4ccc5c(c4)OCCO5)n3)c(-c3ccc(C(F)(F)F)cc3)nn2n1"
[A] 5.72

###

Listing: inhibition of selected compounds
TARGET OR TEST SYSTEM: Platelet-derived growth factor receptor beta (Homo sapiens);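 further: reported value is the mean percent inhibition of the kinase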
CONDITION: at 0.1 µM
Report the figure in % without appending any unit label.

Below are worked cases with known answers.
smiles_repr=CS(=O)(=O)CCNCc1nc(-c2ccc3ncnc(Nc4ccc(OCc5cccc(C(F)(F)F)c5)cc4)c3c2)cs1 value_unit=% reported_measurement=6.68
smiles_repr=CN(C)C(=O)O[C@@H]1CN[C@@H](C#Cc2cc3ncnc(Nc4ccc(OCc5cccc(F)c5)c(Cl)c4)c3s2)C1 value_unit=% reported_measurement=5.61

[Q] Quick one: inhibition of "COc1cc(/C=N/Nc2ncnc3c2cnn3C(C)C)ccc1O" ?
[A] 8.52

[Q] Quick one: inhibition of "NS(=O)(=O)c1ccc(NC=C2C(=O)Nc3ccc4ncsc4c32)cc1" ?
[A] 73.2

###

Tested on: Platelet-derived growth factor receptor alpha (Homo sapiens), P16234 [V561D]
Sequence (P16234 whole entry V561D): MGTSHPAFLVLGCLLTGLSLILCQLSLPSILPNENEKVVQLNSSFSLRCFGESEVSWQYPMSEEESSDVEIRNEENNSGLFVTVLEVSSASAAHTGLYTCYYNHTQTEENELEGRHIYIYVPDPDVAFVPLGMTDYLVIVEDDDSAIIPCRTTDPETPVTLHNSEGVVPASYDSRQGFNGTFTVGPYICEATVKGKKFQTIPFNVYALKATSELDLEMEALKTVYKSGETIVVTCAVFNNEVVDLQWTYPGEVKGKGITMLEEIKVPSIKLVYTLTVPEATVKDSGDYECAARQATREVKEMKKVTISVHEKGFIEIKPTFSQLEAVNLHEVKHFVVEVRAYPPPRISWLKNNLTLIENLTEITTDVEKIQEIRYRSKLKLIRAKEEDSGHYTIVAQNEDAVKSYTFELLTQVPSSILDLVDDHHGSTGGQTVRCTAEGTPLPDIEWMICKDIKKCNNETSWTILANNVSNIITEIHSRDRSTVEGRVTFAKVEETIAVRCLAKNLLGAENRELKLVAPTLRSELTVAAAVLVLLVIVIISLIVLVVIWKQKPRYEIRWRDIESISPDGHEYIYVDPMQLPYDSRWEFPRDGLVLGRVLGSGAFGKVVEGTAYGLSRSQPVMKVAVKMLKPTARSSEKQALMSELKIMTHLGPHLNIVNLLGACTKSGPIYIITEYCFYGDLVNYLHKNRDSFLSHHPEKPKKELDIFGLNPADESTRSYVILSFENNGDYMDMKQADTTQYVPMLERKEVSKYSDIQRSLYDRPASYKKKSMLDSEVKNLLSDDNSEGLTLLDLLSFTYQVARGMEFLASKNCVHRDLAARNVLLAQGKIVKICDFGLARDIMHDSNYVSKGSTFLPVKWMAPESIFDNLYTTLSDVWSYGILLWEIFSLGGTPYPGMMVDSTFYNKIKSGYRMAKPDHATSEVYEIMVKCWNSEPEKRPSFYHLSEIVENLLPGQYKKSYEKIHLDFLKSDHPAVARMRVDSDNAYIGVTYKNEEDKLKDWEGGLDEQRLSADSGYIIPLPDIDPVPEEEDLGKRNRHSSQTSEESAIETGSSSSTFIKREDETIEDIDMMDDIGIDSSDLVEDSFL
CONDITION: at 0.1 µM
Listing: inhibition of selected compounds
Hey, just the number and the unit after it is fine.

Below are worked cases with known answers.
smiles_repr=NS(=O)(=O)c1cccc(-c2cc3ccncc3cc2OCc2ccccc2)c1 reported_measurement=2.61%
smiles_repr=CN(C)c1cc2c(Nc3ccc4c(cnn4Cc4ccccc4)c3)ncnc2cn1 reported_measurement=0.81%
smiles_repr=Cc1ccc2c(c1)/C(=N/Nc1ccc(S(N)(=O)=O)cc1)C(=O)N2 reported_measurement=21.8%
smiles_repr=COc1cccc(-n2ncc3c(N/N=C/c4ccc(S(C)(=O)=O)cc4)ncnc32)c1 reported_measurement=44.1%
smiles_repr=NS(=O)(=O)c1cccc(Nc2cc(-c3ccc(F)cc3)n[nH]2)c1 reported_measurement=29.1%
smiles_repr=COc1cc2ncnc(Nc3ccc(C)c(O)c3)c2cc1OC reported_measurement=89.4%
smiles_repr=[O-][S+]1CCN(Cc2ccc(-c3ccc4ncnc(Nc5ccc(OCc6ccccc6)c(Cl)c5)c4c3)o2)CC1 reported_measurement=3.07%
smiles_repr=c1ccc(Nc2ncc(-c3ccccc3)o2)cc1 reported_measurement=20%

[Q] Field: inhibition (Platelet-derived growth factor receptor alpha (Homo sapiens), P16234 [V561D]). Entry: "NC(=O)c1sc(-n2cnc3ccccc32)cc1OCc1ccccc1Br"
[A] 5.2%

[Q] Field: inhibition (Platelet-derived growth factor receptor alpha (Homo sapiens), P16234 [V561D]). Entry: "NS(=O)(=O)c1ccc(Nc2cc(-c3cccc(O)c3)n[nH]2)cc1"
[A] 17.7%
